pKi: −log10 of the molar value.
Compiled notes: published pKi values involving D(2) dopamine receptor (Homo sapiens).
result-type: pKi

(A) O=C1c2cccc3cccc(c23)N1CCCCCCN1CCN(c2cccc(Cl)c2Cl)CC1
(B) O=C(NCCCCN1CCN(c2ccccn2)CC1)c1cc2ccccc2cn1
(C) COc1ccccc1N1CCN(CCCOc2ccc(-c3cn4cccc(C)c4n3)cc2)CC1
Task item: Sort the listed molecules above so the one with the largest pKi comes first and the smallest comes last. When ranking, write the labels in the order the request describes.
Reply: C, A, B
(C: 7.31, A: 7.03, B: 5.25)

====

Compiled notes: published pKi values involving D(2) dopamine receptor (Homo sapiens).
pKi: −log10 of the molar value.
result-type: pKi

> print(dat)
                                   molecule  result.type  value.observed
1  O=S(=O)(c1ccccc1)n1ccc2c3c(ccc21)[C@H]1CCNCC[C@@H]31 (relative stereo)          pKi            6.10
2  O=C(CCCN1CC2CC1N(c1ccc(Cl)cc1)C2)c1ccc(F)cc1 (stereo unspecified)          pKi            6.77
3  COc1ccccc1N1CCN(CCCCc2cc(-c3cccc([N+](=O)[O-])c3)no2)CC1          pKi            6.53

(1) c1cnc(N[C@H]2CC[C@H](CCN3CCN(c4cnccn4)CC3)CC2)nc1
(2) CCCN1CCO[C@@H]2c3cc4c(cc3CC[C@H]21)COC4=O
(3) CC(Sc1ccc(Cl)c(Cl)c1)c1nc(N)nc(N2CCN(C)CC2)n1 (racemic)
Task item: I would appreciate it if you could sort these 3 molecules by pKi, starting from the smallest number. When ranking, write the labels in the order the request describes.
Reply: 2, 3, 1
(2: 5.69, 3: 6.28, 1: 6.74)
